Origin of values: ChEMBL document CHEMBL4842360

# system under test: GTPase KRas (Homo sapiens, UniProt P01116, G12V)
# Sequence (P01116 whole entry G12V, the tested form may be a part): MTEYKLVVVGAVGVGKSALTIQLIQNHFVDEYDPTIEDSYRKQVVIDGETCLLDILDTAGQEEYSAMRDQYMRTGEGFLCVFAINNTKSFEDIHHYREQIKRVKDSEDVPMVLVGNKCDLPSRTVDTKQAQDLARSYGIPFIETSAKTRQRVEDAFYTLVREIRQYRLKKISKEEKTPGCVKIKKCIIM
# experimental details: Inhibition of His6-tagged KRas G12V mutant (unknown origin) expressed in Escherichia coli BL21(DE3) cells assessed as reduction in Ras/GST-fused Raf RBD interaction incubated for 1 hr by HTRF assay
# condition set: read-out: IC50
outcome measure: IC50 (nM)
Use nM as the unit, but write only the number.

Exercise: Give the value of IC50 reported for the following: C[C@@H]1NC(=O)[C@@H](Cc2ccccc2)NC(=O)[C@@H]2CCCCNC(=O)c3cc(cc(c3)C(=O)N[C@H](Cc3ccc4ccccc4c3)C(=O)N[C@@H](CO)C(=O)N[C@@H](CC(N)=O)C(=O)N[C@H](Cc3ccc4ccccc4c3)C(=O)N[C@@H](c3ccccc3)C(=O)N2)C(=O)NC[C@@H](C(=O)N[C@@H](CC(N)=O)C(=O)N[C@H](CCCNC(=N)N)C(=O)N[C@@H](Cc2cccnc2)C(=O)N[C@H](C)C(N)=O)NC(=O)[C@H](CCCNC(=N)N)NC(=O)[C@@H](CCCNC(=N)N)NC1=O
Key: 410
